molecular target: Adenosine receptor A1 (Bos taurus); test: Affinity to A1 adenosine receptor was measured by the displacement of […] in bovine brain cortical membrane; type: cell membranes
Sequence (P28190 whole entry): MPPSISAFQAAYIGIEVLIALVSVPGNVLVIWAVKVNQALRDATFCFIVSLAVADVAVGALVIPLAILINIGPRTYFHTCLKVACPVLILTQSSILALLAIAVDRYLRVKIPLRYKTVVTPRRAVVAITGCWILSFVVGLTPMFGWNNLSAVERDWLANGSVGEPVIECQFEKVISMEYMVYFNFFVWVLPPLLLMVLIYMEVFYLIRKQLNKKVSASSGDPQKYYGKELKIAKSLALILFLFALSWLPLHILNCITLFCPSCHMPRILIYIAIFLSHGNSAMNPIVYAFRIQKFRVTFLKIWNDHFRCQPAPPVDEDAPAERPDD
Measured Ki accompanies every entry in the list below.

{"columns": ["compound", "unit_spec", "Ki"],
 "data": [
  ["CCCn1c(=O)c2c(nnn2C2CCCCC2)n(CCC)c1=O", "µM", 1.1],
  ["Cn1c(=O)c2c(nnn2C2CCCCC2)n(C)c1=O", "µM", 23],
  ["CCCn1c(=O)c2nn(C3CCCCC3O)nc2n(CCC)c1=O (stereo not drawn)", "µM", 1.4],
  ["Cn1c(=O)c2nn(C3CCCC3)nc2n(C)c1=O", "µM", 110],
  ["Cn1c(=O)c2c(nnn2C2CCCC2)n(C)c1=O", "µM", 11],
  ["Cn1c(=O)c2nn(C3CCCCC3)nc2n(C)c1=O", "µM", 36],
  ["Cn1c(=O)c2c(nnn2C2CCCCC2O)n(C)c1=O (stereo not drawn)", "µM", 114],
  ["CCCn1c(=O)c2c(nnn2-c2ccc(Cl)cc2N)n(CCC)c1=O", "µM", 44],
  ["CCCn1c(=O)c2nn(C3CCCC3)nc2n(CCC)c1=O", "µM", 1.3],
  ["CCCn1c(=O)c2c(nnn2C2CCCCC2O)n(CCC)c1=O (stereo not drawn)", "µM", 1.8],
  ["CCCn1c(=O)c2nn(C3CCCCC3)nc2n(CCC)c1=O", "µM", 1.6],
  ["Cn1c(=O)c2c(nnn2C2CC3CCC2C3)n(C)c1=O (stereo not drawn)", "µM", 18],
  ["Cn1c(=O)c2c(ncn2C)n(C)c1=O", "µM", 29],
  ["Cn1c(=O)c2nn(-c3ccc(Cl)cc3N)nc2n(C)c1=O", "µM", 24],
  ["Cn1c(=O)c2c(nnn2-c2ccc(Cl)cc2N)n(C)c1=O", "µM", 14],
  ["CCCn1c(=O)c2nn(-c3ccc(Cl)cc3N)nc2n(CCC)c1=O", "µM", 1.5],
  ["Cn1c(=O)c2nn(C3CC4CCC3C4)nc2n(C)c1=O (stereo not drawn)", "µM", 31],
  ["CCCn1c(=O)c2c(nnn2C2CCCC2)n(CCC)c1=O", "µM", 0.34]
]}

---

target: Adenosine receptor A2a (Bos taurus); experiment: Affinity to A2 adenosine receptor was measured by the displacement of [3H]-CGS- 21680 in bovine brain striatal membrane
quantity: log10 of Ki (log10 of the value in µM)

{"columns": ["molecule", "log10 of Ki"],
 "data": [
  ["CCCn1c(=O)c2nn(C3CCCCC3)nc2n(CCC)c1=O", 1.34],
  ["CCCn1c(=O)c2c(nnn2C2CCCCC2O)n(CCC)c1=O (stereo unspecified)", 1.13],
  ["Cn1c(=O)c2c(nnn2C2CCCC2)n(C)c1=O", 2.47],
  ["Cn1c(=O)c2nn(C3CCCC3)nc2n(C)c1=O", 1.76],
  ["Cn1c(=O)c2nn(C3CC4CCC3C4)nc2n(C)c1=O (stereo unspecified)", 1.69],
  ["Cn1c(=O)c2nn(C3CCCCC3)nc2n(C)c1=O", 2.40],
  ["CCCn1c(=O)c2c(nnn2C2CCCC2)n(CCC)c1=O", 1.00],
  ["Cn1c(=O)c2c(nnn2C2CCCCC2)n(C)c1=O", 0.92],
  ["Cn1nc2c(=O)n(C)c(=O)n(C)c2n1", 1.72],
  ["Cn1c(=O)c2c(nnn2C2CC3CCC2C3)n(C)c1=O (stereo unspecified)", 0.65],
  ["CCCn1c(=O)c2nn(C3CCCC3)nc2n(CCC)c1=O", 1.11]
]}

---

species: Bos taurus; assay: Ratio between the Ki values of A2 and A1 receptors
Note to self: Ratio under 2 means Satisfied, ties and anything higher get Not satisfied.

{"columns": ["compound", "answer_label"],
 "data": [
  ["Cn1c(=O)c2c(nnn2C2CC3CCC2C3)n(C)c1=O (stereo not given)", "Satisfied"],
  ["Cn1c(=O)c2c(nnn2C2CCCCC2)n(C)c1=O", "Satisfied"],
  ["Cn1c(=O)c2nn(C3CCCCC3)nc2n(C)c1=O", "Not satisfied"],
  ["Cn1c(=O)c2nn(C3CC4CCC3C4)nc2n(C)c1=O (stereo not given)", "Satisfied"],
  ["Cn1c(=O)c2c(nnn2C2CCCC2)n(C)c1=O", "Not satisfied"],
  ["CCCn1c(=O)c2c(nnn2C2CCCC2)n(CCC)c1=O", "Not satisfied"],
  ["CCCn1c(=O)c2nn(C3CCCC3)nc2n(CCC)c1=O", "Not satisfied"],
  ["CCCn1c(=O)c2c(nnn2C2CCCCC2O)n(CCC)c1=O (stereo not given)", "Not satisfied"],
  ["Cn1c(=O)c2nn(C3CCCC3)nc2n(C)c1=O", "Satisfied"],
  ["CCCn1c(=O)c2nn(C3CCCCC3)nc2n(CCC)c1=O", "Not satisfied"]
]}
